Hello, the source for this data is ChEMBL document CHEMBL1667781, in case you need it.

Protocol Details: Inhibition of tubulin polymerization for 70 mins by microtubule polymerization assay
Parameters: concentration or dose not given beside the values
# reported inhibition; entries follow
Report as a plain number; the unit % is understood.

Looking up "COc1ccc(-c2cnoc2-c2ccc(OC)c(OCc3ccccc3)c2)cc1" , I see its inhibition listed as 128

Looking up "COc1ccc(-c2cnoc2-c2ccc(OCc3ccccc3)c(OCc3ccccc3)c2)cc1" , I see its inhibition listed as 80

Looking up "COc1ccc(-c2cnoc2-c2ccc(O)c(O)c2)cc1" , I see its inhibition listed as 65

***
Looking up "COc1ccc(-c2cnoc2-c2ccc(O)cc2)cc1" , I see its inhibition listed as 80

Looking up "COc1ccc(-c2cnoc2-c2ccc(OC)c(O)c2)cc1" , I see its inhibition listed as 50

Looking up "CCc1cc(-c2oncc2-c2ccc(O)cc2)c(O)cc1O" , I see its inhibition listed as 134

Looking up "COc1ccc(-c2cnoc2-c2cc(C)c(O)c(C)c2)cc1" , I see its inhibition listed as 76

Looking up "CCc1cc(-c2oncc2-c2ccc(OC)cc2)c(O)cc1OC" , I see its inhibition listed as 52

* * *

Protocol Details: Inhibition of tubulin polymerization for 70 mins by microtubule polymerization assay
Design: concentration or dose not given beside the values
Value Type: inhibition (%)
Report as a plain number; the unit % is understood.

Recorded results for 2 molecules are shown here.
Looking up "CCc1cc(-c2oncc2-c2ccc(OC)cc2)c(OCc2ccccc2)cc1OC" , I see its inhibition listed as 79

Looking up "COc1ccc(-c2cnoc2-c2cc(C)c(OCc3ccccc3)c(C)c2)cc1" , I see its inhibition listed as 126

***
Looking up "CCc1cc(-c2oncc2-c2ccc(O)cc2)c(O)cc1OC" , I see its inhibition listed as 115
